Just for reference, a melting point compilation (Tetko et al.; mined from patent text by program, amines drawn as free bases though some values may be those of a salt) is where these values come from.

endpoint.name: melting point

molecule=C=CCn1c(=O)[nH]c(=O)n(-c2cc(N3C(=O)C4=C(CCCC4)C3=O)c(F)cc2Cl)c1=O test_value="130 to 145 °C"

melting point for "O=C(NCCO)/C(=C/c1ccc(OC(F)F)cc1)NC(=O)c1ccc(OCCc2ccccc2)cc1" ? 155 to 157 °C

Request the reported melting point associated with CCC1Oc2ccc(Br)cc2N(CC(O)CO)C1=O (centres undefined) 91 °C

// returns reported melting point for input CCCCCCCCCc1ccc(C(=O)[C@@H]2CCCC[C@H]2C(=O)O)cc1 (relative stereo) 84 to 86 °C

Using the record for CC(C)(C)OC(=O)n1c(=O)n(C2CC3CC(N4CCN(c5ccc(F)cc5)CC4)CC3C2)c2ccccc21 (centres undefined) , report its melting point. 244 to 245 °C

Give the measured melting point of "CCOC(=O)c1cc(-n2c(OC)nc(C(F)(F)F)c(F)c2=O)c(F)cc1Cl" . 69 to 72 °C

Suppose we examine the molecule COc1cc(C2CCC(c3cc(OC)c(OC)c(OC)c3)C2N)cc(OC)c1OC (centres undefined) ; what melting point value has been reported? 117 to 119 °C

I have this molecule here, "Cc1ccc(C2C(=O)N(c3ccccc3)N(c3ccccc3)C2=O)cc1" , and I need its recorded melting point. 184 to 185 °C

melting point lookup needed for "Cc1cc(S(F)(F)(F)(F)F)c(S(C)(=O)=O)cc1C(=O)NC(=N)N" , thanks. 254 to 256 °C

May I ask what melting point has been recorded for "Cc1ccc(S(=O)(=O)OCCc2cccc3[nH]cc(S(=O)(=O)c4ccccc4)c23)cc1" ? 58 to 60 °C

What measured melting point goes with "CCOCc1cnc2c([N+](=O)[O-])cccc2c1Cl" ? 110 to 126 °C

What does the record list as melting point for "N#CCCCCn1ccc(NC(=S)NCC(F)(F)F)n1" ? 96 to 98 °C

// query melting point value for entry "CNC(=O)N(O)Cc1ccc(-c2ccccc2)s1" 169 °C
